Just for reference, patent US6541463B1 is where these values come from.

Entries annotated with measured % Inhibition Estrogen Receptor E^−8
Molecular target: estrogen receptor (Rattus norvegicus, UniProt P06211)
Construct: from tissue; host or cells: uterine cytosol of gonadectomized female Sprague-Dawley rats
Sequence (P06211 1-600): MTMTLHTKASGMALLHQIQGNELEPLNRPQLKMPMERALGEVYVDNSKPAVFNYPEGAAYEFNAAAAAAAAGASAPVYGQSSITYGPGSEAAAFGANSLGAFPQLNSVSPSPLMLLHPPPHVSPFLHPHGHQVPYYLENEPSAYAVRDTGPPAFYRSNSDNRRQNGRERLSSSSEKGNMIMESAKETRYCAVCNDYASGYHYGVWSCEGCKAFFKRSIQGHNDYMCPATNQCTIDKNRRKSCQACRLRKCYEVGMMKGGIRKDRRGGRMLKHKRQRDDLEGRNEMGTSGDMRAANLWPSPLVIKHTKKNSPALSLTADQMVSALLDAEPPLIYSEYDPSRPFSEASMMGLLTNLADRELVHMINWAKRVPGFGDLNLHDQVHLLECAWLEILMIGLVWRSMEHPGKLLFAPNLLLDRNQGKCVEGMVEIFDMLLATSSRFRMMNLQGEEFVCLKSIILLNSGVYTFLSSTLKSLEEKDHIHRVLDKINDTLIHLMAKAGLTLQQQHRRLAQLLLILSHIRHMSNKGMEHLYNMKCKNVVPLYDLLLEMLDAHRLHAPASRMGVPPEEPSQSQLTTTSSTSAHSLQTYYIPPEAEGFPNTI
Assay: Estrogen receptor (ER) assay: inhibition of [3H]E2 binding, uterine cytosol
Details: Table 4′; E^−8
Note to self: number, then unit, no commentary.

Example results:
CC1(C)CC[C@@]2(CCC3C4CCc5cc(C(=O)O)ccc5C4CC[C@@]32C)OC1=O (some centres unmarked) [EM-1401] = 5%
CC1(C)CCC2(CCC3C4CCc5cc(OS(C)(=O)=O)ccc5C4CCC32C)OC1=O (centres unmarked) [EM-1365-CS] = 2%
COCCOc1cc2c(cc1C(N)=O)C1CC[C@@]3(C)C(CC[C@@]34CCC(C)(C)C(=O)O4)C1CC2 (some centres unmarked) [EM-1424] = 3%
CC1(C)CC[C@@]2(CCC3C4CCc5cc(C(N)=O)ccc5C4CCC32C)OC1=O (some centres unmarked) [EM-1404] = 0%
COCCOc1ccc2c(c1)CCC1C2CCC2(C)C1CCC21CCC(C)(C)C(=O)O1 (centres unmarked) [EM-1368-CS] = 0%
CC1(C)CCC2(CCC3C4CCc5cc(O)c([N+](=O)[O-])cc5C4CCC32C)OC1=O (centres unmarked) [EM-1125-CS] = 2%
COc1cc2c(cc1C)C1CCC3(C)C(CCC34CCC(C)(C)C(=O)O4)C1CC2 (centres unmarked) [EM-1412-CS] = 0%

Now examine the next entry.
Query: Return % Inhibition Estrogen Receptor E^−8 (reported value) for this compound: CC1CCC2(CCC3C4CCc5cc(O)c([N+](=O)[O-])cc5C4CCC32C)OC1=O (centres unmarked) [EM-1126]
Result: 1%
